// values below are reported z-score
assay.notes: Components of the Cytosolic LPS Sensing Pathway: Gene Identification via Genome-wide siRNA Screen;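 further: robust z of the log signal after scaling to non-targeting control siRNA wells of the plate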
recorded.conditions: RAW264.7 macrophages, IL-1a HTRF, actives lie on both sides, screened at 100 nM (by protocol), cells primed 5 h with Pam3CSK4 first
Among all 53,000 sequences or so, about 3,700 (7%) were called active. The full list was thinned out, with actives kept by preference.
Give the value as a plain number.

Solved entries (count: 4):
INSERT INTO assay_data (record_sequence, observed_result) VALUES
  ('GGAGCUUGACAUUCUGGAATT against Tmco4', 0.766),
  ('GGACUCACAGUUAAAAGUATT against Gtse1', 1.2),
  ('GCCUAAUCAUUCCCAGCAUTT against Oog2', 0.211),
  ('CGUACAACACGGAAACCUATT against Paqr5', -0.448);

Query :: Item under review: GGAGGAAGAAACAACAAUGTT against Calhm5 . Reported z-score?
Result :: 0.76

Query :: Item under review: GGAGAAUGGUUCAUAUCUGTT against Trmt44 . Reported z-score?
Result :: -0.849

Query :: Item under review: GGCGAAAAUUACUCGAAAGTT against Penk . Reported z-score?
Result :: 0.941

Query :: Item under review: GGUUCAACGCAAAGUUCGCTT against Aldh4a1 . Reported z-score?
Result :: 0.347

Query :: Item under review: ACACCUGCCUGCAUCUACUTT against Tcp10a . Reported z-score?
Result :: 1.5

Query :: Item under review: GGUAUACCAAGAAGCUAAGTT against Kctd14 . Reported z-score?
Result :: -0.855

Query :: Item under review: GGCCUGAAGCAGCUUAUCUTT against Chad . Reported z-score?
Result :: -1.56

Query :: Item under review: GUGGACAUCCUCUCUGUCATT against Tmem54 . Reported z-score?
Result :: -2.23

Query :: Item under review: GGAGAAGGGCUUUUCUGUUTT against Gbp5 . Reported z-score?
Result :: -0.729

Query :: Item under review: GGCUGAAUCACCAGAACAUTT against Ikbke . Reported z-score?
Result :: -0.644

Query :: Item under review: GGACAAGGAUAGUAGUAAGTT against Parp1 . Reported z-score?
Result :: -0.122

Query :: Item under review: GGGCAAAGCCUUCAACCCUTT against Insl6 . Reported z-score?
Result :: -0.038

Query :: Item under review: CGGGACUAUUAUUACUCCATT against Ap2m1 . Reported z-score?
Result :: -1.22

Query :: Item under review: GCCAAUCUGGUGAUACUUCTT against Vmn1r71 . Reported z-score?
Result :: -1.64

Query :: Item under review: GGCAUACCGAAAGUUAGCCTT against Dnaja2 . Reported z-score?
Result :: -0.724

Query :: Item under review: CCCGACCACGUGUUUAUUGTT against Tnfsf12 . Reported z-score?
Result :: -1.68

Query :: Item under review: GCCACUUACACUUACUUGATT against Olfr1331 . Reported z-score?
Result :: -0.15

Query :: Item under review: GGCCUGAAAAGACUGAUAATT against Vmn2r26 . Reported z-score?
Result :: 1.18

Query :: Item under review: GGAGUACAUGGUGAUGUUGTT against Prss43 . Reported z-score?
Result :: -2.6

Query :: Item under review: GGAGGUAAAGGAAAACUCUTT against Fmo1 . Reported z-score?
Result :: 0.27

Query :: Item under review: GGAAAACCUACCGAAGUUATT against Irf3 . Reported z-score?
Result :: 2.79
